Molecular target: RNase H activity of HIV reverse transcriptase (Human immunodeficiency virus type 1 group M subtype B, UniProt P04585)
Experiment: Fluorescence (FRET)-based RNase H activity assay of HIV reverse transcriptase
Type: biochemical, HIV-1
Parameters: final concentration of 2.5 nM of the p51/p66 RT heterodimer in the assay; made in house
Conditions: 10 μM inhibitor concentration; activity with analog / without analog x 100
Measured quantity: Residual activity (%) RNase H
Answers are plain numbers, in %.

These solved cases illustrate the format of a correct answer.
Q. Reported Residual activity (%) RNase H, compound CCCCCCc1c2c(nc3ccc(C)cc13)-c1cc(C(O)C(C)(C)C)c(C)c(=O)n1C2 (racemic) : ____
A. 93

Q. Reported Residual activity (%) RNase H, compound Cc1c(C(O)CCC2CCCCC2)cc2n(c1=O)Cc1c-2nc2ccccc2c1-c1ccccc1 (racemic) : ____
A. 104

Q. Reported Residual activity (%) RNase H, compound Cc1c(C(=O)C(C)(C)C)cc2n(c1=O)Cc1c-2nc2ccccc2c1[Si](C)(C)C : ____
A. 97

Q. Reported Residual activity (%) RNase H, compound Cc1c(C(=O)C(C)(C)C)cc2n(c1=O)Cc1c-2nc2ccccc2c1-c1ccccc1 : ____
A. 94

Q. Reported Residual activity (%) RNase H, compound COc1ccc2nc3c(c([Si](C)(C)C)c2c1)Cn1c-3cc(C(O)CCC2CCCCC2)c(C)c1=O (centres unmarked) : ____
A. 96

Q. Reported Residual activity (%) RNase H, compound CCC(=O)c1cc2n(c(=O)c1C)Cc1c-2nc2ccc(OC)cc2c1-c1ccccc1 : ____
A. 104

Q. Reported Residual activity (%) RNase H, compound Cc1c(C(=O)CCC2CCCCC2)cc2n(c1=O)Cc1c-2nc2ccc(F)cc2c1[Si](C)(C)C(C)(C)C : ____
A. 96

Q. Reported Residual activity (%) RNase H, compound Cc1c(C(O)Cc2ccccc2)cc2n(c1=O)Cc1c-2nc2ccc(F)cc2c1[Si](C)(C)C(C)(C)C (centres unmarked) : ____
A. 89

For every listed record, write down its Residual activity (%) RNase H.
1. CCC(O)c1cc2n(c(=O)c1C)Cc1c-2nc2ccc(OC)cc2c1[Si](C)(C)C (racemic)
2. CCC(=O)c1cc2n(c(=O)c1C)Cc1c-2nc2ccc(C)cc2c1-c1ccccc1
3. Cc1ccc2nc3c(c([Si](C)(C)C(C)(C)C)c2c1)Cn1c-3cc(C(O)CCC2CCCCC2)c(C)c1=O (racemic)
4. CCC(=O)c1cc2n(c(=O)c1C)Cc1c-2nc2ccc(OC)cc2c1[Si](C)(C)C(C)(C)C
5. Cc1ccc2nc3c(c([Si](C)(C)C)c2c1)Cn1c-3cc(C(=O)CCC2CCCCC2)c(C)c1=O

A.
[78, 99, 109, 77, 99]

For every listed record, write down its Residual activity (%) RNase H.
1. CCC(=O)c1cc2n(c(=O)c1C)Cc1c-2nc2ccc(C)cc2c1[Si](C)(C)C(C)(C)C
2. CCCCCCc1c2c(nc3ccc(C)cc13)-c1cc(C(O)CC)c(C)c(=O)n1C2 (racemic)
3. CCCCCCc1c2c(nc3ccccc13)-c1cc(C(=O)CCC3CCCCC3)c(C)c(=O)n1C2
4. CCCCCCc1c2c(nc3ccccc13)-c1cc(C(O)CCC3CCCCC3)c(C)c(=O)n1C2 (centres unmarked)
5. CCCCCCc1c2c(nc3ccc(C)cc13)-c1cc(C(=O)CCC3CCCCC3)c(C)c(=O)n1C2
6. Cc1c(C(=O)C(C)(C)C)cc2n(c1=O)Cc1c-2nc2ccc(F)cc2c1[Si](C)(C)C(C)(C)C

A.
[90, 65, 97, 89, 95, 79]
